assay: Apparent permeability from apical to basolateral side in human Caco2 cells at 10 uM by LC/MS/MS analysis; settings: Caco-2
property: Papp A→B at 10 µM (×10⁻⁶ cm/s)

compound: CCN(CC)C[C@H]1[C@@H](O)[C@@]2(O)c3c(OC)cncc3O[C@@]2(c2ccc(C#N)cc2)[C@@H]1c1ccccc1
property: Papp A→B at 10 µM
reported.measurement: 0.3
--
compound: COc1cncc2c1[C@]1(O)[C@H](O)[C@H](CN3CCC(F)(F)CC3)[C@@H](c3ccccc3)[C@]1(c1ccc(C#N)cc1)O2
property: Papp A→B at 10 µM
reported.measurement: 4.8
--
compound: COc1cncc2c1[C@]1(O)[C@H](O)[C@H](CN3[C@@H]4CCC[C@H]3CC4)[C@@H](c3ccccc3)[C@]1(c1ccc(C#N)cc1)O2
property: Papp A→B at 10 µM
reported.measurement: 0.5
--
compound: COc1cncc2c1[C@]1(O)[C@H](O)[C@H](CN(C)CC(F)(F)F)[C@@H](c3ccccc3)[C@]1(c1ccc(C#N)cc1)O2
property: Papp A→B at 10 µM
reported.measurement: 7.1
--
compound: COc1cncc2c1[C@]1(O)[C@H](O)[C@H](C(=O)N(C)C)[C@@H](c3ccccc3)[C@]1(c1ccc(C#N)cc1)O2
property: Papp A→B at 10 µM
reported.measurement: 0.65
--
compound: COc1cncc2c1[C@]1(O)[C@H](O)[C@H](CN3CC4(COC4)C3)[C@@H](c3ccccc3)[C@]1(c1ccc(C#N)cc1)O2
property: Papp A→B at 10 µM
reported.measurement: 0.1
--
compound: COc1cncc2c1[C@]1(O)[C@H](O)[C@H](CN(C)C(C)(C)C)[C@@H](c3ccccc3)[C@]1(c1ccc(C#N)cc1)O2
property: Papp A→B at 10 µM
reported.measurement: 0.1
--
compound: COc1cncc2c1[C@]1(O)[C@H](O)[C@H](CCN(C)C)[C@@H](c3ccccc3)[C@]1(c1ccc(C#N)cc1)O2 (racemic)
property: Papp A→B at 10 µM
reported.measurement: 0.1

---

assay: Efflux ratio in human Caco2 cells at 10 uM by LC/MS/MS analysis; details: Caco-2, Ratio

compound: CNC[C@H]1[C@@H](O)[C@@]2(O)c3c(OC)cncc3O[C@@]2(c2ccc(C#N)cc2)[C@@H]1c1ccccc1 (racemic)
efflux ratio at 10 µM: 3.9
//
compound: COc1cncc2c1[C@]1(O)[C@H](O)[C@H](CN(C)C)[C@@H](c3ccccc3)[C@]1(c1ccc(C#N)cc1)O2 (stereo in doubt; (-)-37)
efflux ratio at 10 µM: 22
//
compound: COc1cncc2c1[C@]1(O)[C@H](O)[C@H](CN3CCOCC3)[C@@H](c3ccccc3)[C@]1(c1ccc(C#N)cc1)O2
efflux ratio at 10 µM: 5.3

---

experiment: Apparent permeability from apical to basolateral side in human Caco2 cells at 10 uM by LC/MS/MS analysis; conditions: Caco-2, Papp

compound: COc1cncc2c1[C@]1(O)[C@H](O)[C@H](CN3CCOCC3)[C@@H](c3ccccc3)[C@]1(c1ccc(C#N)cc1)O2
Papp A→B at 10 µM (×10⁻⁶ cm/s): 1.5

compound: COc1cncc2c1[C@]1(O)[C@H](O)[C@H](CN(C)C)[C@@H](c3ccccc3)[C@]1(c1ccc(C#N)cc1)O2 (stereo in doubt; (-)-37)
Papp A→B at 10 µM (×10⁻⁶ cm/s): 0.21

compound: CNC[C@H]1[C@@H](O)[C@@]2(O)c3c(OC)cncc3O[C@@]2(c2ccc(C#N)cc2)[C@@H]1c1ccccc1 (racemic)
Papp A→B at 10 µM (×10⁻⁶ cm/s): 0.3

compound: CNC(=O)[C@H]1[C@@H](O)[C@@]2(O)c3ncc(Cl)cc3O[C@@]2(c2ccc(C#N)cc2)[C@@H]1c1ccccc1
Papp A→B at 10 µM (×10⁻⁶ cm/s): 0.5
